- study_system: T1, HLA-A*0201 molecule expressed on human tumor cell line T2 (human)
- T1 construct: surface HLA-A2 read with anti-HLA-A2 antibody BB7.2-PE by FACS; also called HLA-A2
- experiment_description: T2 cell HLA-A2 stabilisation, FACS; peptide at 50 µM
quantity: mean relative fluorescence intensity

Guide cases for mean relative fluorescence intensity, answers given:
[
  {
    "binder": "WLPFGFILI [IL13RA2-H]",
    "mean relative fluorescence intensity": "14.2 relative (HIV peptide = 100)"
  },
  {
    "binder": "LMDLSTTPL [FOXM1-H2]",
    "mean relative fluorescence intensity": "62.5 relative (HIV peptide = 100)"
  },
  {
    "binder": "FMLGEFLKL [BIRC5-B1]",
    "mean relative fluorescence intensity": "77.1 relative (HIV peptide = 100)"
  },
  {
    "binder": "GLLGEFLQI [BIRC5-B3]",
    "mean relative fluorescence intensity": "29.8 relative (HIV peptide = 100)"
  },
  {
    "binder": "LTLGEFLKL [BIRC5-H]",
    "mean relative fluorescence intensity": "18.9 relative (HIV peptide = 100)"
  }
]

The reported value for LMDLSTTEV [FOXM1-B2] in terms of mean relative fluorescence intensity is 91.5 relative (HIV peptide = 100)
